Just for reference, patent US20260167619A2 is where these values come from.

TARGET DESC: EGFR(L858R_T790M_C797S) (aa695-end, Invitrogen) (Homo sapiens, UniProt P00533, C797S/L858R/T790M)
Sequence (P00533 695-1210 T790M/C797S/L858R): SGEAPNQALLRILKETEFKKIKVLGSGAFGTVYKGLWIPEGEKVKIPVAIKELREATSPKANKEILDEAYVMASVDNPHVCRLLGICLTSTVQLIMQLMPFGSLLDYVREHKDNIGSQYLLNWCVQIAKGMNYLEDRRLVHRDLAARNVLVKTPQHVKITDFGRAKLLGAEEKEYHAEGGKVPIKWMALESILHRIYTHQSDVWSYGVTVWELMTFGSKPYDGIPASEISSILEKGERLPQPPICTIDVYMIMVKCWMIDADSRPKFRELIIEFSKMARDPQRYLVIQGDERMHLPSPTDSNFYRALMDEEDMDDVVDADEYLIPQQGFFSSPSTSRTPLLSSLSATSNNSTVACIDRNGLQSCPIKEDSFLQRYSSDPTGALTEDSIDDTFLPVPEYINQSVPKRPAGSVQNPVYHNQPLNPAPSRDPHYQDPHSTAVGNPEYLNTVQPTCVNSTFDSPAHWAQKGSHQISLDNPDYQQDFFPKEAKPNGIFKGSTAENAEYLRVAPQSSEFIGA
EXPERIMENTAL PROTOCOL: Biochemical EGFR inhibition assay (TR-FRET), L858R/T790M/C797S mutant
COND: ATP at Km, 15 min pre-incubation, 60 min reaction; read-out: LR_TM_CS (Km ATP) IC50
Experimental: Compounds were tested for inhibition of kinase activity against EGFR (aa668-1210, Invitrogen), EGFR(L858R_T790M_C797S) (aa695-end, Invitrogen) and EGFR(Dell9_T790M_C797S) (aa 669-1210, in house) in assays based on time-resolved fluorescence-resonance energy transfer (TR-FRET) methodology. […] The residual enzyme activity in presence of increasing concentrations of compounds was calculated based on the ratio of fluorescence at 665 nm to that at 620 nm. […]
pIC50: −log10 of the molar value.
METRIC: pIC50

A. COc1cc(N(C)CCN(C)C)ccc1Nc1nc(Nc2cccc3c2N(S(C)(=O)=O)CC3)c2cc[nH]c2n1
B. COc1cc(N2CCN(C)[C@H](C)C2)c(C)cc1Nc1nc(Nc2cccc3c2N(S(C)(=O)=O)CC3)c2cc[nH]c2n1
C. COc1cc(N2CCC(N3CCN(C)CC3)CC2)ccc1Nc1ncc(Cl)c(Nc2cccc3c2N(S(=O)(=O)CCc2ccccc2)CC3)n1
D. COc1cc(N2C[C@H]3CN(C)C[C@H]3C2)c(C)cc1Nc1nc(Nc2cccc3c2N(S(C)(=O)=O)CC3)c2cc[nH]c2n1
Ask: Ranking field: pIC50; order: falling. Arrange the labels as the request states and list them.
Result: D, A, B, C
